Reported MF (mean HLA-A2.1 fluorescence) values are given for each entry in this list.
Target: HLA-A2.1 (Homo sapiens, UniProt P04439, D140Y/D185E/D98H/E176V/E277Q/G131W/G231S/I119V/I121R/I166T/I218V/L300P/L318F/N151K/N90K/P208A/P217A/Q86G/Q94H/R138H/R169H/T345S)
Construct: endogenous in cells; host or cells: 174CEM.T2
Format: cell-based
Conditions: HPV16 peptides; 200 μg/ml peptide, 16 hours, 174CEM.T2 cells
Field format: numeric only.

Task: Need MF (mean HLA-A2.1 fluorescence) of MLDLQPETT [HPV16 peptide 13, residues 12-20 of HPV16 protein E7] , thanks.
Output: 217.6

Task: Need MF (mean HLA-A2.1 fluorescence) of GTLGIVCPI [HPV16 peptide 17, residues 85-93 of HPV16 protein E7] , thanks.
Output: 216.1

***
Task: Need MF (mean HLA-A2.1 fluorescence) of RLCVQSTHV [HPV16 peptide 14, residues 66-74 of HPV16 protein E7] , thanks.
Output: 250.0

Task: Need MF (mean HLA-A2.1 fluorescence) of LCTELQTTI [HPV16 peptide 3, residues 22-30 of HPV16 protein E6] , thanks.
Output: 113.6

Task: Need MF (mean HLA-A2.1 fluorescence) of TLEDLLMGT [HPV16 peptide 15, residues 78-86 of HPV16 protein E7] , thanks.
Output: 182.8

====

Target: HLA-A2.1 (Homo sapiens, UniProt P04439, D140Y/D185E/D98H/E176V/E277Q/G131W/G231S/I119V/I121R/I166T/I218V/L300P/L318F/N151K/N90K/P208A/P217A/Q86G/Q94H/R138H/R169H/T345S)
Construct: endogenous in cells; host or cells: 174CEM.T2
Format: cell-based
Settings: HPV16 peptides; 200 μg/ml peptide, 16 hours, 174CEM.T2 cells; background set on 0; binding positive when ≧0.5
Protocol: Of all peptides a dilution of 1 mg/ml in 0.9% NaCl was made. […] 174CEM.T2 cells were washed twice in culture medium without FCS and put in serum-free culture medium to a density of 2×10^6 cells/ml. […] Then cells were washed twice and incubated for 30 minutes with F(ab)2 fragments of goat anti-mouse IgG that had been conjugated with […] (Tago Inc Burlingame, Calif., USA: 4350) in a dilution of 1:40 and a total volume of 25 μl. […]
ASSAY ENDPOINT: FI (Fluorescence Index)
Field format: numeric only.

Task: Need FI (Fluorescence Index) of YMLDLQPET [HPV16 peptide 12, residues 11-19 of HPV16 protein E7] , thanks.
Output: 3.3

Task: Need FI (Fluorescence Index) of TLEDLLMGT [HPV16 peptide 15, residues 78-86 of HPV16 protein E7] , thanks.
Output: 1.8

Task: Need FI (Fluorescence Index) of TIHDIILEC [HPV16 peptide 6, residues 29-37 of HPV16 protein E6] , thanks.
Output: 1.8

Now look at this entry.
Task: Need FI (Fluorescence Index) of LCTELQTTI [HPV16 peptide 3, residues 22-30 of HPV16 protein E6] , thanks.
Output: 0.7

====

Biological target: HLA-A2.1 (Homo sapiens, UniProt P04439, D140Y/D185E/D98H/E176V/E277Q/G131W/G231S/I119V/I121R/I166T/I218V/L300P/L318F/N151K/N90K/P208A/P217A/Q86G/Q94H/R138H/R169H/T345S)
Construct: endogenous in cells; host or cells: 174CEM.T2
Assay type: cell-based
Conditions: HPV16 peptides; 200 μg/ml peptide, 16 hours, 174CEM.T2 cells; background set on 0; binding positive when ≧0.5
ASSAY ENDPOINT: FI (Fluorescence Index)
Field format: numeric only.

For orientation, consider the following solved cases.
Task: Need FI (Fluorescence Index) of PLCDLLIRC [HPV16 peptide 10, residues 102-110 of HPV16 protein E6] , thanks.
Output: 2.1

Task: Need FI (Fluorescence Index) of IHDIILECV [HPV16 peptide 7, residues 30-38 of HPV16 protein E6] , thanks.
Output: 1.3

Task: Need FI (Fluorescence Index) of MLDLQPETT [HPV16 peptide 13, residues 12-20 of HPV16 protein E7] , thanks.
Output: 2.3

Task: Need FI (Fluorescence Index) of RLCVQSTHV [HPV16 peptide 14, residues 66-74 of HPV16 protein E7] , thanks.
Output: 2.8

***
Task: Need FI (Fluorescence Index) of CVYCKQQLL [HPV16 peptide 8, residues 37-45 of HPV16 protein E6] , thanks.
Output: 2.0

====

Molecular target: HLA-A2.1 (Homo sapiens, UniProt P04439, D140Y/D185E/D98H/E176V/E277Q/G131W/G231S/I119V/I121R/I166T/I218V/L300P/L318F/N151K/N90K/P208A/P217A/Q86G/Q94H/R138H/R169H/T345S)
Construct: endogenous in cells; host or cells: 174CEM.T2
Format: cell-based
Settings: HPV18 peptides; 200 μg/ml peptide, 16 hours, 174CEM.T2 cells
Field: label. Allowed values: Fulfilled (MF (mean HLA-A2.1 fluorescence) < 300) or Not fulfilled (MF (mean HLA-A2.1 fluorescence) >= 300).

Take a look at these entries with their results.
Task: Given the entry QLFLNTLSF [HPV18 peptide 12, residues 88-96 of HPV18 protein E7] , would its reported MF (mean HLA-A2.1 fluorescence) be below 300?
Output: Fulfilled

Task: Given the entry FQQLFLNTL [HPV18 peptide 11, residues 86-94 of HPV18 protein E7] , would its reported MF (mean HLA-A2.1 fluorescence) be below 300?
Output: Fulfilled

Task: Given the entry KLPDLCTEL [HPV18 peptide 1, residues 13-21 of HPV18 protein E6] , would its reported MF (mean HLA-A2.1 fluorescence) be below 300?
Output: Not fulfilled

Task: Given the entry EITCVYCKT [HPV18 peptide 4, residues 29-37 of HPV18 protein E6] , would its reported MF (mean HLA-A2.1 fluorescence) be below 300?
Output: Fulfilled

Task: Given the entry LTNTGLYNL [HPV18 peptide 9, residues 93-101 of HPV18 protein E6] , would its reported MF (mean HLA-A2.1 fluorescence) be below 300?
Output: Not fulfilled

***
Task: Given the entry FAFKDLFVV [HPV18 peptide 7, residues 47-55 of HPV18 protein E6] , would its reported MF (mean HLA-A2.1 fluorescence) be below 300?
Output: Not fulfilled

Task: Given the entry SLQDIEITC [HPV18 peptide 2, residues 24-32 of HPV18 protein E6] , would its reported MF (mean HLA-A2.1 fluorescence) be below 300?
Output: Fulfilled

Task: Given the entry LFLNTLSFV [HPV18 peptide 13, residues 89-97 of HPV18 protein E7] , would its reported MF (mean HLA-A2.1 fluorescence) be below 300?
Output: Not fulfilled

====

System: HLA-A11.2
Test: Immunochemical peptide-MHC binding assay, purified HLA-A11.2, radiolabeled probe […]
Parameters: species or system human
Details: IC50 of standard divided by IC50 of tested peptide, cysteines synthesized as alanine
ASSAY ENDPOINT: binding ratio to standard
Field format: numeric only.

Task: Need binding ratio to standard of AMFQDPQER [residues 7-15 of HPV16 protein E6] , thanks.
Output: 0.8400

Task: Need binding ratio to standard of KISEYRHYC [HPV16 peptide 9, residues 79-87 of HPV16 protein E6] , thanks.
Output: 0.0076

Task: Need binding ratio to standard of VCPICSQKP [residues 90-98 of HPV16 protein E7] , thanks.
Output: 0.0012

Task: Need binding ratio to standard of LIRCINCQK [residues 107-115 of HPV16 protein E6] , thanks.
Output: 0.0120

Task: Need binding ratio to standard of SCCRSSRTR [residues 145-153 of HPV16 protein E6] , thanks.
Output: 0.0330

Task: Need binding ratio to standard of TGRCMSCCR [residues 140-148 of HPV16 protein E6] , thanks.
Output: 0.0012

Task: Need binding ratio to standard of HYNIVTFCC [residues 51-59 of HPV16 protein E7] , thanks.
Output: 0.0010

Task: Need binding ratio to standard of IILECVYCK [residues 33-41 of HPV16 protein E6] , thanks.
Output: 6.7000

Task: Need binding ratio to standard of YAVCDKCLK [residues 67-75 of HPV16 protein E6] , thanks.
Output: 0.0074

Now look at this entry.
Task: Need binding ratio to standard of IVYRDGNPY [residues 59-67 of HPV16 protein E6] , thanks.
Output: 0.4700

Cited source: patent US7364741B1
